- tgt: hALDH2 (Homo sapiens)
- Sequence (P05091 18-517): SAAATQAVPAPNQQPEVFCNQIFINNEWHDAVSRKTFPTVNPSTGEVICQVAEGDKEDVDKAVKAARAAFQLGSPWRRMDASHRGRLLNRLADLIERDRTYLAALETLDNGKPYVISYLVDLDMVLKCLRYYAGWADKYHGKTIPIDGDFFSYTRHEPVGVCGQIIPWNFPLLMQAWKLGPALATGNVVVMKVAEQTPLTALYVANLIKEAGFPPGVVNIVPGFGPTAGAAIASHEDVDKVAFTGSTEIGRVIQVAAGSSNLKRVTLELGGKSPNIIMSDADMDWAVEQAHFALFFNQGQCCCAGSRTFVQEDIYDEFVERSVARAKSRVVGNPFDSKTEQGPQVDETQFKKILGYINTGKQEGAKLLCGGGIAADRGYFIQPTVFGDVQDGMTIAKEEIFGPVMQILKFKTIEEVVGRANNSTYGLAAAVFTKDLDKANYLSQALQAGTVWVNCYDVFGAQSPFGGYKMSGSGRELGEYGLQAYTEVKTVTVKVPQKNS
readout.label: pIC50
A value of pIC50 is the negative decimal logarithm of a concentration given in moles per litre.

Give its pIC50 value. Item: CN(C)C(=S)SSC(=S)N(C)C [thiram] 5.80
